Tested on: SR leukemia
Assay: NCI tumour cell line growth inhibition, 48 h; in the data active = GI50 below about 0.43 µM; inactive = the rest
Classes used: True = active, False = inactive

> print(dat)
                                    compound  class.name
 1  NCCN.NCCN.O=C[O-].O=C[O-].[Co+3].[O-][Cl+3]([O-])([O-])[O-]       False
 2  CS(=O)(=O)CCNCc1ccc(-c2ccc3ncnc(Nc4ccc(OCc5cccc(F)c5)c(C(F)(F)F)c4)c3c2)o1       False
 3  CN(C)C/C=C/C(=O)Nc1cc2c(Nc3ccc(F)c(Cl)c3F)ncnc2cc1OCCOC(F)F       False
 4  COc1cc(/C=C/c2cc(/C=C/c3ccc(O)c(OC)c3)nc(N)n2)ccc1O       False
 5  CN1C(=O)[C@@H](NC(=O)[C@H](CCC(F)(F)F)[C@H](CCC(F)(F)F)C(N)=O)N=C(c2ccccc2)c2ccccc21       False
 6  Nc1ccccc1NC(=O)c1ccc(CCCC(=O)Nc2ccc(C3CC3N)cc2)cc1 (configuration not stated)       False
 7  COC(=O)Nc1nc2ccc(C(=O)c3ccc(N(C)C4COC4)cc3)cc2[nH]1        True
 8  CC(=O)[O-].[Mn+3].[O-]c1ccccc1C=NCCN=Cc1ccccc1[O-]       False
 9                COC1=CC(=O)C(OC)=C(OC)C1=O       False
10  CCn1cc(-c2ccnc3[nH]ccc23)c(-c2cccc(NC(=O)Nc3ccc(OCc4ccccc4)cc3)c2)n1       False
11  COc1ccc(C(=O)/C=C/c2cc3c(c(OC)c2)OCC(=O)N3)cc1       False
12  CC(=O)N1c2ccccc2NC2=C(C(=O)N(Cc3ccccc3)C2(C)C)C1c1ccco1 (configuration not stated)       False

* * *

System: SF-295 CNS
Test: NCI tumour cell line growth inhibition, 48 h
measured endpoint: GI50

> print(dat)
                           smiles.structure  value.reported
1  CC(C)CC(=O)Nc1n[nH]c2c1CN(C(=O)C1CCN(C)CC1)C2(C)C         1.35 µM
2  O=C(O)CCC/C=C\C[C@H]1C=CC(=O)/C1=C/C[C@@H](O)CCc1cccc(C(F)(F)F)c1          2.5 µM
3  COc1cc(/C=C/c2cc(/C=C/c3ccc(O)c(OC)c3)nc(N)n2)ccc1O         1.93 µM
4  COc1cc(Nc2ncc(F)c(Nc3ccc4c(n3)NC(=O)C(C)(C)O4)n2)cc(OC)c1OC          4.4 µM
5  CN1CCN(c2ccc(Nc3nc(N)c(C(=O)c4ccc5c(c4)OCCO5)s3)cc2)CC1         3.65 µM

* * *

System: U251 CNS
Assay: NCI tumour cell line growth inhibition, 48 h
measured endpoint: TGI

> print(dat)
                                    compound  value.reported
 1  CC(=O)[O-].[Mn+3].[O-]c1ccccc1C=NCCN=Cc1ccccc1[O-]        > 100 µM
 2  S=P1(N2CCCCC2)Oc2ccc3ccccc3c2-c2c(ccc3ccccc23)O1        > 100 µM
 3  COC(=O)c1cccc(N[C@@H]2c3cc4c(cc3C(c3cc(OC)c(O)c(OC)c3)[C@H]3C(=O)OCC32)OCO4)c1 (stereo not given in full)         12.2 µM
 4  COc1ccc(NC(=O)CC/C(CC(=O)C(C)(C)C)=N\NC(=O)C(N)=O)cc1        > 100 µM
 5  CC1=C(C(=O)Nc2cc(=O)n(C)c(=O)n2C)C(c2ccc([N+](=O)[O-])cc2)C(C(=O)Nc2cc(=O)n(C)c(=O)n2C)=C(C)N1        > 100 µM
 6  CN1C(=O)[C@@H](NC(=O)[C@H](CCC(F)(F)F)[C@H](CCC(F)(F)F)C(N)=O)N=C(c2ccccc2)c2ccccc21        > 100 µM
 7  COc1ccc2c(c1)/C(=C\c1c(C)nc3sc(C)cn13)C(=O)N2          7.2 µM
 8  C=C1C(=O)C[C@@]23CCC[C@@]12CC(OCOC)C3 (stereo not given in full)           21 µM
 9  CCn1cc(-c2ccnc3[nH]ccc23)c(-c2cccc(NC(=O)Nc3ccc(OCc4ccccc4)cc3)c2)n1         > 25 µM
10  O=C(Nc1cccc(Cc2cccc(NC(=O)c3ccccc3)c2)c1)c1ccccc1        > 100 µM
11  CS(=O)(=O)Nc1cccc(-c2cc(-c3ccccc3Cl)c(C#N)c(N)n2)c1         15.4 µM
12  CCOC(=O)C(C(=O)c1ccccc1C(=O)OC)=P(c1ccccc1)(c1ccccc1)c1ccccc1         > 10 µM
13  O=C(/C=C/C=C/c1c(C2CC2)nc2ccccc2c1-c1ccc(F)cc1)c1cccs1          5.4 µM
14  Nc1nc2cc3ccc(C4CC(O)C(CO)O4)cc3cc2c(=O)[nH]1 (stereo not given)        > 100 µM
15  Nc1ccccc1NC(=O)c1ccc(CCCC(=O)Nc2ccc(C3CC3N)cc2)cc1 (stereo not given)         4.06 µM
16            CCN1C2=NCCN2S(=O)(=O)c2ccccc21        > 100 µM
17  O=C1N2CCc3c([nH]c4ccccc34)C23CC2CCCCC12S3 (stereo not given)        > 100 µM
18  CN(CC#N)C1CCCC[C@H]1O (stereo not given in full)        > 100 µM
19  CN(C)C/C=C/C(=O)Nc1cc2c(Nc3ccc(F)c(Cl)c3F)ncnc2cc1OCCOC(F)F         9.23 µM
20                 CN(CCO)c1nc(N)cc(=O)[nH]1        > 100 µM

* * *

System: NCI-H522 lung
Experiment: NCI tumour cell line growth inhibition, 48 h
Quick reference: TGI of the listed items.
measured endpoint: TGI (µM)

compound	sign qualifier	value reported
Cc1nn(C(=O)c2ccncc2)c2c1C(c1ccccc1)SC(N)=N2 (stereo unspecified)	>	10
O=C1NC(N2CCCCC2)=N/C1=C\c1cccs1	>	100
S=C(Nc1ccc(Cl)cc1)Nc1ccc(-c2nc3ccccc3o2)cc1	=	26.7
O=C(NNC(c1ccccc1)C(F)(F)F)c1ccncc1 (stereo unspecified)	>	100
C=C1C(=O)OC2/C=C(/C)C3CC(O)C(C)(CC(OC(=O)/C(C)=C/C)C12)O3 (stereo unspecified)	=	6.12
O=C(/C=N/O)Nc1cc(Cl)c(Cl)cc1Cl	=	67.8
CN(C)CCNC(=O)c1cccc2c(Nc3ccc(S(N)(=O)=O)cc3)c3ccccc3nc12	=	2.8
NCCN.NCCN.O=C[O-].O=C[O-].[Co+3].[O-][Cl+3]([O-])([O-])[O-]	>	100
O=C(Cc1nc2ccccc2s1)C(=O)Nc1cccc(Cl)c1	>	100
CC(C)(C)NC(=O)NC12CC3CC(CC(F)(C3)C1)C2	>	100
COC(=O)C1c2c(c3ccccc3n2C(=O)OC)CCN2CCC1C(S(=O)(=O)c1ccccc1)C2=O (stereo unspecified)	>	100
Cn1c(-c2cccs2)cc(-c2cccs2)c1-c1ccco1	=	88.2
N#CC(=C1CCCCC1)c1nc2ccccc2o1	=	60.6
C/C(=N\Nc1nc2ccccc2n1C)c1cnccn1	>	35.8
O=c1cc(-c2ccccc2)oc2cc(O)cc(O)c12	=	33
Cc1ccc2c(sc(-c3ccc4c(c3)sc(-c3ccc5c(c3)sc(-c3ccc(N(C)C)cc3)[n+]5C)[n+]4C)[n+]2C)c1S(=O)(=O)O (tested in a mixture with another compound)	>	100
Cc1nccc2c3ccc(OCc4cn(-c5ccc(Cl)cc5)nn4)cc3n(CCCc3ccccc3)c12	>	33.3
Cc1cc2cn3c4ccc(O)cc4[nH]c(=O)c3c2cc1C	=	0.0697
O=C(Nc1c(C(F)(F)F)cc(-c2ccccc2)[nH]c1=O)N1CCOCC1	>	100
c1ccc(C2=NOC3(c4ccccc4)SC4CCCCC4CN23)cc1 (stereo unspecified)	=	22.6
N#CSc1c[nH]c2ccc(/C=C/C(=O)/C=C(/C=C/c3ccc4[nH]cc(SC#N)c4c3)OB(F)F)cc12	=	0.653

* * *

Quick reference: TGI of the listed items.
Tested on: MCF7 breast
Assay: NCI tumour cell line growth inhibition, 48 h
measured endpoint: TGI

> print(dat)
                                   molecule  target.under.test  value.reported
1  CC(C)CC(=O)Nc1n[nH]c2c1CN(C(=O)C1CCN(C)CC1)C2(C)C        MCF7 breast         > 10 µM
2            CCN1C2=NCCN2S(=O)(=O)c2ccccc21        MCF7 breast        > 100 µM
3  C[C@]12Cc3cnn(-c4ccc(F)cc4)c3NC1CC[C@@H]1C2CC[C@@]2(C)C1CC[C@@H]2O (some centres not stated)        MCF7 breast         36.7 µM
4    O=C(O)Cc1ccc(Oc2nc3ccccc3nc2C(=O)O)cc1        MCF7 breast        > 100 µM
5            O=C(/C=N/O)Nc1cc(Cl)c(Cl)cc1Cl        MCF7 breast        > 100 µM
6  OC(COc1ccc(F)cc1)Cn1cnc2c(Cl)ncnc21 (configuration not stated)        MCF7 breast        > 100 µM
7  COc1cc(C=C2C(C)=NN(c3cccc(Cl)c3)C23C(Cl)C(=O)N3c2nc3ccccc3s2)ccc1O (configuration not stated)        MCF7 breast        > 100 µM
